- tested system: SHP-1 (Homo sapiens, UniProt P29350)
- Construct: expressed in transfected cells; host or cells: HEK 293T cells, unpurified lysate
- Sequence (P29350 whole entry): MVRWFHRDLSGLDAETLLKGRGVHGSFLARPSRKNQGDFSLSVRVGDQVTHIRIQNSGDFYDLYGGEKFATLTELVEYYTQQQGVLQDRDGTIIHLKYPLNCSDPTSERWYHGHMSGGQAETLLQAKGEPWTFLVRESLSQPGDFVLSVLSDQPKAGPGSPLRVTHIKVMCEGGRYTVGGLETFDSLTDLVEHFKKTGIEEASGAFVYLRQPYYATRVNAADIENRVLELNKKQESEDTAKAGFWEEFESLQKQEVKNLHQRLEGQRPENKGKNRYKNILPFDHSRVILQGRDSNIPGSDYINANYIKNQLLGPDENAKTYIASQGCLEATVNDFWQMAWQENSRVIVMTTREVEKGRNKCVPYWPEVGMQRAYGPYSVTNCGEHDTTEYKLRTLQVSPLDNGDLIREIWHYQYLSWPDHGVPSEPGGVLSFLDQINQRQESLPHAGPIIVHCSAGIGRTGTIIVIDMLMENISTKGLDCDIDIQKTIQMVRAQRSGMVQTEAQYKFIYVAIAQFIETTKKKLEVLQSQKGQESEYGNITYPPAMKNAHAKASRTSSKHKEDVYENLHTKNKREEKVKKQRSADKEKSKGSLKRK
- test summary: MST analysis for the binding of YFP-SHP-1 and actin-derived peptides
Where no end group is shown, it is not given here.
outcome measure: pKd
pKd field: float, defined as -log10 of concentration (mol/L).

Look up pKd: KEKLCYVALDF [WT actin peptide, KEKLCYVALDF]
4.40
